FYI, the data here is from ChEMBL document CHEMBL1156033.

protocolSummary: physchem
recordedEndpoint: solubility
Lab note: write values as number then unit, every time.

A selection of reference data follows.
[
  {
    "smilesRecord": "CCOC(=O)c1ncn2c1Cn1ncnc1-c1cc(Cl)ccc1-2",
    "solubility": "15 µg/mL"
  },
  {
    "smilesRecord": "C#Cc1ccc2c(c1)-c1nc(C)ncc1Cc1c(C(=O)OCC)ncn1-2",
    "solubility": "10 µg/mL"
  },
  {
    "smilesRecord": "CCOC(=O)c1ncn2c1Cc1cnc(C)nc1-c1cc(Br)ccc1-2",
    "solubility": "20 µg/mL"
  }
]

Lab note: next compound to report on.
Consider the compound shown here: `c1ccc2c(c1)-c1ncnn1Cc1cncn1-2` What is its recorded solubility?
231 µg/mL
